B1: tRNA (parent)
chain: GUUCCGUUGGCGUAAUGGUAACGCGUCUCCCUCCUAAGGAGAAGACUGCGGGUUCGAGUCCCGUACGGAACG

Variants of: B1
test protocol: yeast fitness, log relative to wild type (ln ratio); higher = fitter; tRNA-Arg(CCU), competitive growth, 37 C, 1 M NaCl
Reported yeast fitness (ln) is given for each of the following variants.
Write no unit; give the number alone.

{"variant spec": "G1A G6U C46U C66A C71U", "yeast fitness (ln)": 0.0017}
{"variant spec": "U2G G6U C27U A43C A69G", "yeast fitness (ln)": -0.268}
{"variant spec": "G6U C66U A70G", "yeast fitness (ln)": -0.383}
{"variant spec": "G1A G6U A43C C66A A70G C71U", "yeast fitness (ln)": -0.517}
{"variant spec": "G1A U2G C27U C46U C66U", "yeast fitness (ln)": -0.185}

Form: variant = G6A C27U A43C C66U A69G A70G C71U ; yeast fitness (ln) = -0.371

Per the record, U2G C27U C46U A70G C71U has yeast fitness (ln) of -0.216

GET /value?item= G1A U2G G6U C46U C66U A69G A70G C71U &field=yeast fitness (ln) returns -0.244

Documented yeast fitness (ln) of U2G C46U A70G : -0.0123

Measured yeast fitness (ln), U2C G6A C27U A43C C46U C66U A70G : -0.0221

The recorded yeast fitness (ln) for G1A U2C G6A C27U A43C C46U A69G A70U is -0.132

Record G1A U2G G6U C46U C66U A70G C71U . Reported yeast fitness (ln): -0.216

Reported yeast fitness (ln) of U2C G6A A43C C66A A70U C71U : -0.261
